system-name: IDH1-R132H homodimer enzyme (Homo sapiens (Human), UniProt O75874, R132H)
Sequence (O75874 whole entry R132H): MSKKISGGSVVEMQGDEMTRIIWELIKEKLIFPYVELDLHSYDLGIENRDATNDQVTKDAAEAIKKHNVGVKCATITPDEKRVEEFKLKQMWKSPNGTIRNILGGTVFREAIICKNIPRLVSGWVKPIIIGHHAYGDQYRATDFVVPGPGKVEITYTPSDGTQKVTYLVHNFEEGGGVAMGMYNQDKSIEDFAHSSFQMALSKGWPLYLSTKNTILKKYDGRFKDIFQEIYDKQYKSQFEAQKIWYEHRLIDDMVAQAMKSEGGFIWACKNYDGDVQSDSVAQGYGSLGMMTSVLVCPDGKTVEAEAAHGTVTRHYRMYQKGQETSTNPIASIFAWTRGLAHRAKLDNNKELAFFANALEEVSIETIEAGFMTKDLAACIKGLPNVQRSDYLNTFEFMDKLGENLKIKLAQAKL
experiment-description: In vitro assay IDH1-R132H homodimer, NADPH depletion assay with NADPH/NADP preincubation
run-conditions: 5 μM NADPH and 37.5 μM NADP
pIC50: −log10 of the molar value.
Items are presented alongside their recorded pIC50.

{"columns": ["compound", "pIC50"],
 "data": [
  ["CC(CC#N)Nc1nc(NC(C)CC#N)nc(-c2cccc(Cl)n2)n1 (stereo not drawn)", "6.00 to 7.00"],
  ["C[C@@H](Nc1nc(NCCOc2ccccc2)nc(-c2cccc(C(F)(F)F)n2)n1)C1CC1", "6.00 to 7.00"],
  ["FC1(F)CCC(Nc2nc(Nc3ccnc(C(F)(F)F)c3)nc(-c3cccc(C(F)(F)F)n3)n2)CC1", "6.00 to 7.00"],
  ["CC(F)(F)c1cccc(-c2nc(NC3CCC(F)(F)C3)nc(NC3CCC(F)(F)C3)n2)n1 (stereo not drawn)", "> 7.30"],
  ["FC1(F)CC[C@H](Nc2nc(Nc3ccnc(C(F)(F)F)c3)nc(-c3cncc(C(F)(F)F)n3)n2)C1", "7.00 to 7.30"],
  ["N#Cc1ccc2c(c1)CC(Nc1nc(NC3CCC(F)(F)C3)nc(-c3cccc(C(F)(F)F)n3)n1)C2 (stereo not drawn)", "6.00 to 7.00"]
]}

Problem: Specify measured pIC50 for CC(F)(F)c1cc(Nc2nc(NC3CCC(F)(F)C3)nc(-c3cccc(C(F)(F)F)n3)n2)ccn1 (stereo not drawn) .
Solution: 7.00 to 7.30

Problem: Specify measured pIC50 for N#CC1(c2cc(Nc3nc(NC4CCC(F)(F)C4)nc(-c4nccc(C(F)(F)F)n4)n3)ccn2)CC1 (stereo not drawn) .
Solution: < 6.00

###

system-name: IDH1-R132C homodimer enzyme (Homo sapiens (Human), UniProt O75874, R132C)
Sequence (O75874 whole entry R132C): as the sequence (O75874 whole entry R132H) above, with H132C counted along it
experiment-description: In vitro assay IDH1-R132C homodimer, NADPH depletion assay with NADPH/NADP preincubation
run-conditions: 5 uM NADPH and 28.75 uM NADP, read-out: IDH R132C NADPH/NADP IC50
pIC50: −log10 of the molar value.
Items are presented alongside their recorded pIC50.

Problem: Specify measured pIC50 for `C[C@@H](Nc1nc(Nc2ccnc(C(F)(F)F)c2)nc(-n2ccc(C(F)(F)F)n2)n1)C(F)(F)F` .
Solution: 6.00 to 7.00

Problem: Specify measured pIC50 for `FC1(F)CC(Nc2nc(Nc3ccnc(C(F)(F)F)c3)nc(-c3cccc(C(F)(F)F)n3)n2)C1` .
Solution: < 6.00

Problem: Specify measured pIC50 for `FC1(F)CC[C@H](Nc2nc(Nc3ccnc(C(F)(F)F)c3)nc(-c3cncc(C(F)(F)F)n3)n2)C1` .
Solution: 6.00 to 7.00

Problem: Specify measured pIC50 for `FC1(F)CC(Nc2nc(NC3CC(F)(F)C3)nc(-c3cncc(C(F)(F)F)n3)n2)C1` .
Solution: 7.00 to 7.30

###

system-name: IDH1-R132H homodimer enzyme (Homo sapiens (Human), UniProt O75874, R132H)
experiment-description: In vitro assay IDH1-R132H homodimer, NADPH depletion assay with NADPH/NADP preincubation
run-conditions: 5 μM NADPH and 37.5 μM NADP
pIC50: −log10 of the molar value.
Items are presented alongside their recorded pIC50.

{"columns": ["compound", "system-name", "pIC50"],
 "data": [
  ["FC1(F)CCC(Nc2nc(NC3CCC(F)(F)CC3)nc(-c3cccc(OC(F)(F)F)n3)n2)CC1 [Compound 296]", "IDH1-R132H homodimer enzyme (Homo sapiens (Human), UniProt O75874, R132H)", "< 6.00"],
  ["FC1(F)CC[C@@H](Nc2nc(N[C@@H]3CCC(F)(F)C3)nc(-c3cccc(C(F)(F)F)n3)n2)C1 [Compound 111]", "IDH1-R132H homodimer enzyme (Homo sapiens (Human), UniProt O75874, R132H)", "> 7.30"],
  ["Nc1ccc(F)c(-c2nc(Nc3cc(F)cc(F)c3)nc(NC3CCC(F)(F)C3)n2)n1 (stereo not drawn) [Compound 153]", "IDH1-R132H homodimer enzyme (Homo sapiens (Human), UniProt O75874, R132H)", "> 7.30"],
  ["N#Cc1cc(Nc2nc(NC3CC(F)(F)C3)nc(-c3cccc(C(F)(F)F)n3)n2)ccn1 [Compound 213]", "IDH1-R132H homodimer enzyme (Homo sapiens (Human), UniProt O75874, R132H)", "7.00 to 7.30"],
  ["CC(C)(C)Nc1nc(Nc2ccnc(C#N)c2)nc(-c2cccc(C(F)(F)F)n2)n1 [Compound 162]", "IDH1-R132H homodimer enzyme (Homo sapiens (Human), UniProt O75874, R132H)", "> 7.30"]
]}

Problem: Specify measured pIC50 for CS(=O)(=O)N1CCC(Nc2nc(NC3CCC(F)(F)CC3)nc(-c3cccc(C(F)(F)F)n3)n2)CC1 [Compound 266] .
Solution: < 6.00

Problem: Specify measured pIC50 for CC(Nc1nc(N[C@H](C)C2CC2)nc(-c2cccc(C(F)(F)F)n2)n1)C(F)(F)F (stereo partly drawn) [Compound 203] .
Solution: > 7.30

Problem: Specify measured pIC50 for C[C@@H](Nc1nc(N[C@H](C)C2CC2)nc(-c2nccc(C(F)(F)F)n2)n1)C1CC1 [Compound 268] .
Solution: < 6.00

Problem: Specify measured pIC50 for C[C@@H](Nc1nc(Nc2ccnc(C(F)(F)F)c2)nc(-n2ccc(C(F)(F)F)n2)n1)C(F)(F)F [Compound 400] .
Solution: 6.00 to 7.00

Problem: Specify measured pIC50 for CC(C)(C#N)Nc1nc(Nc2ccnc(C(C)(F)F)c2)nc(-c2cccc(C(F)(F)F)n2)n1 [Compound 247] .
Solution: 6.00 to 7.00

Problem: Specify measured pIC50 for N#CC1(c2cc(Nc3nc(NC4CCC(F)(F)C4)nc(-c4cccc(Cl)n4)n3)ccn2)CC1 (stereo not drawn) [Compound 127] .
Solution: > 7.30

Problem: Specify measured pIC50 for N#Cc1cc(F)cc(Nc2nc(NC3CCC(F)(F)CC3)nc(-c3cccc(C(F)(F)F)n3)n2)c1 [Compound 164] .
Solution: 7.00 to 7.30

Problem: Specify measured pIC50 for FC1(F)CCC(Nc2nc(NC3CCC(F)(F)C3)nc(-c3cncc(C(F)(F)F)n3)n2)C1 (stereo not drawn) [Compound 138] .
Solution: > 7.30

Problem: Specify measured pIC50 for FC1(F)CC(Nc2nc(NC3CC(F)(F)C3)nc(-c3ccnc(C(F)(F)F)n3)n2)C1 [Compound 251] .
Solution: 6.00 to 7.00

Problem: Specify measured pIC50 for C[C@@H](Nc1nc(NC(C(F)(F)F)C(F)(F)F)nc(-c2cccc(Cl)n2)n1)C(F)(F)F [Compound 100] .
Solution: > 7.30
